System: Mfn2 null MEFs
Assay: Mitochondrial elongation (aspect ratio) fusogenicity assay
Assay type: cell-based, mouse
ASSAY METRIC: potency relative to other compounds, in words

MOLECULE | VALUE MEASURED
Cn1c(CCCNC(=O)NC2CCOCC2)nnc1C1CC1 [Mitolityn-6] | highest potency
CCn1c(SCC(=O)Nc2sc3c(c2C(N)=O)CCC3)nnc1C1CC1 [1-G11] | more potent
CCn1c(CCCNC(=O)NC2CCOCC2)nnc1C1CC1 [Mitolityn-4] | highest potency
Cn1c(SCC(=O)Nc2sc3c(c2C(N)=O)CCC3)nnc1-c1ccccc1 [1-61] | more potent
